Target: T1, recombinant soluble human Seprase (rhuSeprase) (human, UniProt Q12884 29-760)
T1 construct: range 29-760; Secreted from CHO-S cells with a mouse Ig kappa secretion signal (not part of the protein in the assay); also called recombinant human Seprase; soluble fraction of human Seprase
T1 sequence: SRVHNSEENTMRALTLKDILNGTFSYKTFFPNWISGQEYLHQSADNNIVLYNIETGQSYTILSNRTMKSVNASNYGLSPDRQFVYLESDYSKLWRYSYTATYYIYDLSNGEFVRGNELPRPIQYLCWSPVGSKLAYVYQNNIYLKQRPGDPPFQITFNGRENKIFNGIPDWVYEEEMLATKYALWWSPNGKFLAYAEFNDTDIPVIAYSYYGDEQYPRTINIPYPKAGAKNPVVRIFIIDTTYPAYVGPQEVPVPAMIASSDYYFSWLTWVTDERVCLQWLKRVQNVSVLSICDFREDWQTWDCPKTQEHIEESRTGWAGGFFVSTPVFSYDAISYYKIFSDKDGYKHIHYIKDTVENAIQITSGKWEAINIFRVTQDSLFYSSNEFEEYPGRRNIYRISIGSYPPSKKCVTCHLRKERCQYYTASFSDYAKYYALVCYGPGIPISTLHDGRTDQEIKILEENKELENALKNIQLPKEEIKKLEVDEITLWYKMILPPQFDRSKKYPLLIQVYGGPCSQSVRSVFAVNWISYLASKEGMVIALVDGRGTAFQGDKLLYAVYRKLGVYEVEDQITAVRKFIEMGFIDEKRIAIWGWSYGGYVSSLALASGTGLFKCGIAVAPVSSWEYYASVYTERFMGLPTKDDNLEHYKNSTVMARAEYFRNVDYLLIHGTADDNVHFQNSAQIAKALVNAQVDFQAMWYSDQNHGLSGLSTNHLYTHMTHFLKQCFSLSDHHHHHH
Assay: SPR (Biacore T-100), rhuSeprase immobilized on CM5, multi cycle kinetics, 1:1 fit
Reported pKd is given for each of the following binders.
pKd field: float, defined as -log10 of concentration (mol/L).

{"columns": ["binder", "pKd"],
 "data": [
  ["GSGACPYTRWQPGRGPSCRRDSDCPGRCICRGNGYCG (designed binder) [FA8-D05]", 6.71]
]}

## Input Recorded pKd for GSGACPYTNWRPGRGPACRRDSDCPGRCICRGNGYCG (designed binder) [FA8-C09] , please?
## Output 6.53

Data origin: patent US20180037632A1
